molecular target: BTK (Homo sapiens, UniProt Q06187); assay: biochemical; settings: read-out: BTK inhibition (%), 0.75 uM BTK, […] probe 3l, 15 min preincubation
Sequence (Q06187 402-655 limits assumed): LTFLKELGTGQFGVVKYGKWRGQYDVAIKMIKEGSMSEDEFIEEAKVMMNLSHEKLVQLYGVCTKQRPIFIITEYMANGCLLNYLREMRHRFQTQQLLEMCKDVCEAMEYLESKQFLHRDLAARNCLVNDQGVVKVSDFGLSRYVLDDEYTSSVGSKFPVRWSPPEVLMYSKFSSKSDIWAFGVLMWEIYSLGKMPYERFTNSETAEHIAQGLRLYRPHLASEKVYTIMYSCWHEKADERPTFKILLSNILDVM
Reported inhibition at 10 µM by item:

Answered cases to consult:
Compound	inhibition at 10 µM
Nc1nc(=S)c2ncn([C@H]3C[C@H](O)[C@@H](CO)O3)c2[nH]1	-7.7%
CN(C)c1ccc2nc3c(C(=O)O)cc(=O)c(O)c-3oc2c1	88%

In: Dear colleague, I am looking for the recorded inhibition at 10 µM of the following compound: CN1CCC(=C2c3ccccc3C=Cc3ccccc32)CC1
Out: -9.3%

In: Entry to check: COC1CCN(C(=O)c2cc(Cc3n[nH]c(=O)c4ccccc34)ccc2F)CC1
Out: 10%

In: Entry to check: NCC(O)c1ccc(O)cc1 (centres unmarked)
Out: 2.3%

In: Entry to check: O=C(/C=C/C=C/c1ccccc1)CCc1ccccc1
Out: 4.6%

In: Entry to check: CCC(C)CC(C)CCCCCCCCC(=O)N[C@H]1C[C@@H](O)[C@@H](NCCN)NC(=O)[C@@H]2[C@@H](O)CCN2C(=O)[C@H]([C@H](O)CCN)NC(=O)[C@H]([C@H](O)[C@@H](O)c2ccc(O)cc2)NC(=O)[C@@H]2C[C@@H](O)CN2C(=O)[C@H]([C@@H](C)O)NC1=O (some centres unmarked)
Out: 11.1%

In: Entry to check: COC(=O)c1cc(OC)c(O)c(OC)c1
Out: -17.1%
